- Test system: Leptosphaeria nodorum (LEPTNO)
- test.description: In vitro fungitoxicity of hydrazones with and without copper towards Leptosphaeria nodorum (Example 26)
- Type: cell-based
- condition.context: copper-plus medium (CuCl2 10 μM); test compound Concn. 0.05 μg/mL; 72 h at 25° C.
measurement.label: LEPTNO % Inhn. Plus Copper Observed (%)

molecule="O=C(N/N=C/c1cc(Cl)cc(C(F)(F)F)c1O)c1cccc(F)c1 [Example 378]" measurement_unit=% result=98.4
molecule="C/C(=N\\NC(=O)c1cccc(Cl)c1)c1cc(C)ccc1O [Example 316]" measurement_unit=% result=97.1
molecule="COc1cc(O)c(/C(C)=N/NC(=O)c2ccc(Br)cc2)c(OC)c1 [Example 570]" measurement_unit=% result=97.2
molecule="COc1ccc(C(=O)N/N=C(\\C)c2cc(Cl)ccc2O)cc1 [Example 511]" measurement_unit=% result=97.8
molecule="Cc1cccc(C(=O)N/N=C/c2cc(C(F)(F)F)ccc2O)c1 [Example 435]" measurement_unit=% result=97.2
molecule="COc1cccc(/C(C)=N/NC(=O)c2ccc(C(F)(F)F)cc2)c1O [Example 466]" measurement_unit=% result=97.9
molecule="O=C(N/N=C/c1c(O)cccc1Cl)c1cccc(F)c1 [Example 400]" measurement_unit=% result=97.9
molecule="Cc1ccc(C(=O)N/N=C/c2c(C(F)(F)F)ccc(Cl)c2O)cc1 [Example 448]" measurement_unit=% result=97.5
molecule="O=C(N/N=C/c1c(C(F)(F)F)ccc(Cl)c1O)c1cccc([N+](=O)[O-])c1 [Example 453]" measurement_unit=% result=100.0
molecule="C/C(=N\\NC(=O)c1cc(Cl)ccc1O)c1cc(Cl)cc(Cl)c1O [Example 490]" measurement_unit=% result=97.0
molecule="O=C(N/N=C/c1cccc(Cl)c1O)c1cccc([N+](=O)[O-])c1 [Example 429]" measurement_unit=% result=97.4
molecule="C/C(=N\\NC(=O)c1ccccc1O)c1cc(F)cc(F)c1O [Example 583]" measurement_unit=% result=98.0
molecule="C/C(=N\\NC(=O)c1ccc2ccccc2c1O)c1cc(Cl)cc(Cl)c1O [Example 480]" measurement_unit=% result=95.3
molecule="Cc1cccc(C(=O)N/N=C/c2cc(C(F)(F)F)cc(C(F)(F)F)c2O)c1 [Example 332]" measurement_unit=% result=93.9
molecule="O=C(N/N=C/c1cc(C(F)(F)F)cc(C(F)(F)F)c1O)c1ccccc1C(F)(F)F [Example 341]" measurement_unit=% result=88.9
molecule="O=C(N/N=C/c1c(C(F)(F)F)ccc(Cl)c1O)c1cccc(Cl)c1 [Example 451]" measurement_unit=% result=100.0
molecule="O=C(N/N=C/c1cc(Cl)cc(C(F)(F)F)c1O)c1ccc(Cl)cc1 [Example 381]" measurement_unit=% result=98.6
molecule="C/C(=N\\NC(=O)c1ccc(Br)cc1)c1cc(F)cc(F)c1O [Example 580]" measurement_unit=% result=98.1
molecule="C/C(=N\\NC(=O)c1ccccc1O)c1cc(C(F)(F)F)ccc1O [Example 538]" measurement_unit=% result=96.5
molecule="O=C(N/N=C/c1ccc(Cl)c(Cl)c1O)c1cccc([N+](=O)[O-])c1 [Example 360]" measurement_unit=% result=96.9
molecule="O=C(N/N=C/c1cc(Cl)cc(C(F)(F)F)c1O)c1ccc([N+](=O)[O-])cc1 [Example 383]" measurement_unit=% result=95.7
molecule="Cc1ccc(C(=O)N/N=C/c2cc(Cl)cc(Cl)c2O)c(O)c1 [Example 308]" measurement_unit=% result=97.7
molecule="O=C(N/N=C/c1ccc(Cl)c(Cl)c1O)c1ccccc1O [Example 362]" measurement_unit=% result=97.2
molecule="N#Cc1cc(F)c(O)c(/C=N/NC(=O)c2ccccc2)c1 [Example 307]" measurement_unit=% result=91.3
molecule="O=C(N/N=C/c1ccc(Cl)cc1O)c1ccccc1O [Example 395]" measurement_unit=% result=93.9
molecule="C/C(=N\\NC(=O)c1cccc(C)c1)c1cc(C(F)(F)F)ccc1O [Example 529]" measurement_unit=% result=97.7
molecule="COc1ccc(C(=O)N/N=C(\\C)c2cc(Cl)cc(Cl)c2O)cc1 [Example 469]" measurement_unit=% result=97.8
molecule="O=C(N/N=C/c1cc(C(F)(F)F)cc(C(F)(F)F)c1O)c1cccc([N+](=O)[O-])c1 [Example 338]" measurement_unit=% result=98.1
molecule="COc1ccc(/C(C)=N/NC(=O)c2cccc(Cl)c2)c(O)c1OC [Example 556]" measurement_unit=% result=95.9
molecule="C/C(=N\\NC(=O)c1ccc(C(F)(F)F)cc1)c1cc(F)cc(F)c1O [Example 581]" measurement_unit=% result=98.2
molecule="C/C(=N\\NC(=O)c1ccc(Br)cc1)c1cc(Br)ccc1O [Example 517]" measurement_unit=% result=96.7
